Molecular target: mouse ENT-1 transporter (Mus musculus)
Sequence (Q9JIM1 1-460): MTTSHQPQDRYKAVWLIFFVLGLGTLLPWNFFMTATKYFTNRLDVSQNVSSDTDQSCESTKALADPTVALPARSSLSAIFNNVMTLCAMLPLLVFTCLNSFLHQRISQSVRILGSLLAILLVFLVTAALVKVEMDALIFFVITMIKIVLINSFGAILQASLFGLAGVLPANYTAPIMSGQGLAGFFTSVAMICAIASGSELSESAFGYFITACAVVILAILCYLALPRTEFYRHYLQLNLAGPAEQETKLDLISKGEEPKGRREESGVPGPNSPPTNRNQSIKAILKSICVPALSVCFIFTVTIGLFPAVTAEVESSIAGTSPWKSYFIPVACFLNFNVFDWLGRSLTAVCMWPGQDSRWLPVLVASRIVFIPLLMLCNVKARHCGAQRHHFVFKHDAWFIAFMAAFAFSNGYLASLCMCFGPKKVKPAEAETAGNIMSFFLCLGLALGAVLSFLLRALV
Assay: Adenosine transport activity (ENT1, [3H]-adenosine uptake inhibition)
Details: stable cells expressing mouse ENT-1; [2,8-3H]-adenosine 6 nM, 20 min
pIC50: −log10 of the molar value.
Below, each entry is listed alongside its reported pIC50.
readout kind: pIC50

Cc1ncc(-c2ccc3c(c2)N(c2ccc4c(C)nn(C)c4n2)C(=O)C3(C)C)cn1 [Example 61]: 6.69
COCCN(C)c1cncc(N2C(=O)C(C)(C)c3ccc(-c4cnc(C)nc4)cc32)n1 [Example 12]: 7.26
Cc1ncc(-c2ccc3c(c2)N(c2cnc(N4[C@@H]5COC[C@H]4C5)cn2)C(=O)C3(C)C)cn1 [Example 51]: 6.64
Cc1ncc(-c2ccc3c(c2)N(c2cccc(N4CCOCC4)n2)C(=O)C3(C)C)cn1 [Example 27]: 7.24
Cc1ncc(-c2ccc3c(c2)N(c2ccnc(N4CCOCC4)n2)C(=O)C3(C)C)cn1 [Example 23]: 7.28
Cc1ncc(-c2ccc3c(c2)N(c2cc4c(cn2)C(C)(C)C(=O)N4C2CC2)C(=O)C3(C)C)cn1 [Example 40]: 6.31
Cc1ncc(-c2ccc3c(c2)N(c2ccc4ccn(C)c4c2)C(=O)C3(C)C)cn1 [Example 62]: 6.37
Cc1ncc(-c2ccc3c(c2)N(c2cncc(N4CCOCC4)c2)C(=O)C3(C)C)cn1 [Example 26]: 7.75

---

Molecular target: mouse ENT-1 transporter (Mus musculus, UniProt Q9JIM1)
Assay: Adenosine transport activity (ENT1, [3H]-adenosine uptake inhibition)
Conditions: stable cells expressing mouse ENT-1; [2,8-3H]-adenosine 6 nM, 20 min
IC50 vs 40 nM: less than gives met; not less than gives not met.

Cc1ncc(-c2ccc3c(c2)N(c2cnc(NCCO)cn2)C(=O)C3(C)C)cn1: not met
Cc1ncc(-c2ccc3c(c2)N(c2cnc(C)c(N4CCOCC4)n2)C(=O)C3(C)C)cn1: not met
Cc1ncc(-c2ccc3c(c2)N(c2ccc(C)c(N)n2)C(=O)C3(C)C)cn1: not met
Cc1ncc(-c2ccc3c(c2)N(c2ccc4nnn(C)c4c2)C(=O)C3(C)C)cn1: not met
Cc1ncc(-c2ccc3c(c2)N(c2cncc(N4CCC(F)(F)CC4)n2)C(=O)C3(C)C)cn1: met
Cc1ncc(-c2ccc3c(c2)N(c2cncc(N)n2)C(=O)C3(C)C)cn1: not met
Cc1ncc(-c2ccc3c(c2)N(c2cncc(N4CCC(C)(O)CC4)n2)C(=O)C3(C)C)cn1: met
Cc1ncc(-c2ccc3c(c2)N(c2cncc(N4C(=O)OC[C@H]4C(C)C)n2)C(=O)C3(C)C)cn1: not met
Cc1ncc(-c2ccc3c(c2)N(c2cncc(N4C[C@H]5C[C@@H](C4)O5)n2)C(=O)C3(C)C)cn1: not met
Cc1ncc(-c2ccc3c(c2)N(c2ccc4oc(C)nc4n2)C(=O)C3(C)C)cn1: not met
Cc1ncc(-c2ccc3c(c2)N(c2ccc4c(c2)N(C)C(=O)C4(C)C)C(=O)C3(C)C)cn1: not met
Cc1ncc(-c2ccc3c(c2)N(c2ccc4c(c2)NC(=O)C4(C)C)C(=O)C3(C)C)cn1: not met
Cc1ncc(-c2ccc3c(c2)N(c2cncc(N4CCS(=O)(=O)CC4)n2)C(=O)C3(C)C)cn1: met
Cc1ncc(-c2ccc3c(c2)N(c2ccc4c(c2)N(C)C(=O)CO4)C(=O)C3(C)C)cn1: met
COc1ccc(CN2C(=O)C(C)(C)c3ccc(N4C(=O)C(C)(C)c5ccc(-c6cnc(C)nc6)cc54)cc32)cc1: not met
Cc1ncc(-c2ccc3c(c2)N(c2ccc4c(c2)N(C2COC2)C(=O)C4(C)C)C(=O)C3(C)C)cn1: not met
Cc1ncc(-c2ccc3c(c2)N(c2cncc(NC4COC4)n2)C(=O)C3(C)C)cn1: not met
Cc1ncc(-c2ccc3c(c2)N(c2cncc(N4CCCC4)n2)C(=O)C3(C)C)cn1: not met
Cc1ncc(-c2ccc3c(c2)N(c2ccc4c(n2)N(C)C(=O)C4(C)C)C(=O)C3(C)C)cn1: met
Cc1ncc(-c2ccc3c(c2)N(c2cnc(-n4ccnc4C)cn2)C(=O)C3(C)C)cn1: met
Cc1ncc(-c2ccc3c(c2)N(c2cncc(N4CCC(O)CC4)n2)C(=O)C3(C)C)cn1: met
